These measurements were taken from patent US20200362047A1.

Quick list: IC50 per entry.
Target: T1, human CD137 expressed on the surface of CHO cells (human, UniProt Q07011 24-255)
T1 construct: Also used for the Jurkat reporter cells that express human CD137 (functional rows); also called CHO human CD137 cells; CHO huCD137
T1 sequence (Q07011 24-255 limits assumed): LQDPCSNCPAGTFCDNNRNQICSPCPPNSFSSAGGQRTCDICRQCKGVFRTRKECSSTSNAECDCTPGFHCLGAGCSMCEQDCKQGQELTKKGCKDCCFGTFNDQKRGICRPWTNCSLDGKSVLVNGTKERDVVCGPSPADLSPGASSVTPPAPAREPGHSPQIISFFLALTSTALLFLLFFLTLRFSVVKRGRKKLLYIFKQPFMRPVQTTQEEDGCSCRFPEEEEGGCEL
Assay: FMAT ligand inhibition, CD137 Ligand on CHO human CD137 cells
Report as a plain number; the unit µM is understood.

Solved entries:
INSERT INTO results (binder, result) VALUES
  ('Humabody VH 2.48 (VHH, human single VH domain) VHH: EVQLVESGGGLVKPGGSLRLSCAASGFTFSDYYMSWIRQAPGKGLEWVSYISGSGDIIDYADSVKGRFTISRDNAKNSLYLQMNSLRAEDTAVYYCAREDARLTGTTDFDNWGQGTLVTVSS', 0.086),
  ('Humabody VH 1.95 (VHH, human single VH domain) VHH: EVQLVESGGGLVQPGGSLRLSCAASGFTFSSHWMTWVRQAPGKGLEWVAHIKEDGSEKYYVDSVKGRFTISRDNAKNSLYLQMNSLRAEDTAVYYCARGGDGYSDSHFGVDVWGQGTTVTVSS', 0.024),
  ('Humabody VH 1.93 (VHH, human single VH domain) VHH: EVQLVESGGGLVQPGGSLRLSCAASGFTFSSHWMTWFRQAPGKGLEWVAHIKEDGSEKYYEDSVEGRFTISRDNAKNSVYLQMNSLRAEDTAVYYCARGGDGYSDSHFGVDVWGQGTTVTVSS', 0.0007);

Incoming: GET /values?readout=IC50&item= Humabody VH 2.8 (VHH, human single VH domain) VH: EVQLVESGGGLVKPGGSLRLSCAASGFAFSDYYMSWFRQAPGKGLEWVSHISGSGTTIDYADSVKGRFTISRDNAKNSLYLQMNSLRAEDTAVYHCAREDSRMPGTTDFDNWGQGTLVTVSSHHHHHH
Outgoing: 0.019

Incoming: GET /values?readout=IC50&item= Humabody VH 1.102 (VHH, human single VH domain) VHH: EVQLVESGGGLVQPGGSLRLSCAASGFTFSSHWMTWFRQAPGKGLEWVAHIKEEGSEKYYVDSVKGRFTISRDNAKNSLYLQMNSLRAEDTAVYYCARGGDGYSDSHFGVDVWGQGTTVTVSS
Outgoing: 0.0017

Incoming: GET /values?readout=IC50&item= Humabody VH 2.9 (VHH, human single VH domain) VH: EVQLVESGGGLVKPGGSLRLSCAASGFTFSDYYMTWFRQAPGKGLEWISYISGSGDTIDYAESVKGRFTISRDNAKNSLYLQMNSLRAEDTAVYHCAREDSRIAGTTDFDNWGPGTLVTVSSHHHHHH
Outgoing: 0.002

Incoming: GET /values?readout=IC50&item= Humabody VH 2.42 (VHH, human single VH domain) VHH: EVQLVESGGGLVKPGGSLRVSCAASGFTFSDYYMSWIRQAPGKGLEWVSYISGSGDIIDYADSVKGRFTISRDNAKNSLYLQMNNLRAEDTAVYHCAREDSRLTGTTDFDNWGQGTLVTVSS
Outgoing: 0.2

Incoming: GET /values?readout=IC50&item= Humabody VH 1.99 (VHH, human single VH domain) VHH: EVQLVESGGGLVQPGGSLRLSCAASGFTFSSHWMTWFRQAPGKGLEWVAHIKEDESEKYYVDSVKGRFTISRDNAKNSLYLQMNSLRAEDTAVYYCARGGDGYSDSHFGVDVWGQGTTVTVSS
Outgoing: 0.0015
